- System: NCI-H23 lung
- assay: NCI-60 one-dose screen, 48 h
- run_conditions: 10 µM unless noted
Compounds without any hit were thinned out: in the full panel of roughly 83,000, 20% have a hit. The source made the active and inactive calls. The calls were made as follows: active = growth percent below 10; inactive = the rest.
Tick one outcome: TRUE for active, FALSE for inactive

Nc1nc2ccccc2c2c(=O)c3cc(Cl)ccc3sc12; FALSE
O=C(/C=C/c1ccccc1)N(C1CCCCC1)C1CCCCC1; FALSE
O=CN1N=C(c2cccc(Nc3ccnc4cc(Cl)ccc34)c2)CC1c1ccc(Cl)cc1 (stereo not drawn); TRUE
COc1cc2c(c(OC)c1OC)C(=O)CC(c1cccc(C(=O)Nc3ccc(C#N)cc3)c1)O2 (stereo not drawn); FALSE

Please turn your attention to the following entry.
Query: How did this test come out for CCCC(=O)NC(c1ccc2c(c1)OCO2)c1cc(Cl)c2cccnc2c1O (stereo not drawn) ?
Response: FALSE
